tested on: SF-539 CNS; assay: NCI tumour cell line growth inhibition, 48 h
Measured Property: TGI (µM)
Numbers only, in µM.

Worked examples follow.
> print(dat)
                               input.smiles  value.reported
1  Cl.Fc1c[c-]c(-c2ccccn2)c(F)c1.[Pt].c1ccc([PH+](CC[PH+](c2ccccc2)c2ccccc2)c2ccccc2)cc1           0.976
2  CCc1nc2ccc(Cc3ccc(C(=O)NO)cc3)cc2c(=O)n1CCc1ccccc1            3.65
3         Cc1cc2c(cc1Cl)Sc1nnc(C)n1S2(=O)=O            36.4

Next:
Problem: Please give the measured TGI for this compound: `CCOC(=O)C(Cc1c[nH]c2cc([N+](=O)[O-])ccc12)(NC(C)=O)C(=O)OCC`
Result: 330
